- system.tested: Epidermal growth factor receptor (Homo sapiens)
- Sequence (P00533 whole entry): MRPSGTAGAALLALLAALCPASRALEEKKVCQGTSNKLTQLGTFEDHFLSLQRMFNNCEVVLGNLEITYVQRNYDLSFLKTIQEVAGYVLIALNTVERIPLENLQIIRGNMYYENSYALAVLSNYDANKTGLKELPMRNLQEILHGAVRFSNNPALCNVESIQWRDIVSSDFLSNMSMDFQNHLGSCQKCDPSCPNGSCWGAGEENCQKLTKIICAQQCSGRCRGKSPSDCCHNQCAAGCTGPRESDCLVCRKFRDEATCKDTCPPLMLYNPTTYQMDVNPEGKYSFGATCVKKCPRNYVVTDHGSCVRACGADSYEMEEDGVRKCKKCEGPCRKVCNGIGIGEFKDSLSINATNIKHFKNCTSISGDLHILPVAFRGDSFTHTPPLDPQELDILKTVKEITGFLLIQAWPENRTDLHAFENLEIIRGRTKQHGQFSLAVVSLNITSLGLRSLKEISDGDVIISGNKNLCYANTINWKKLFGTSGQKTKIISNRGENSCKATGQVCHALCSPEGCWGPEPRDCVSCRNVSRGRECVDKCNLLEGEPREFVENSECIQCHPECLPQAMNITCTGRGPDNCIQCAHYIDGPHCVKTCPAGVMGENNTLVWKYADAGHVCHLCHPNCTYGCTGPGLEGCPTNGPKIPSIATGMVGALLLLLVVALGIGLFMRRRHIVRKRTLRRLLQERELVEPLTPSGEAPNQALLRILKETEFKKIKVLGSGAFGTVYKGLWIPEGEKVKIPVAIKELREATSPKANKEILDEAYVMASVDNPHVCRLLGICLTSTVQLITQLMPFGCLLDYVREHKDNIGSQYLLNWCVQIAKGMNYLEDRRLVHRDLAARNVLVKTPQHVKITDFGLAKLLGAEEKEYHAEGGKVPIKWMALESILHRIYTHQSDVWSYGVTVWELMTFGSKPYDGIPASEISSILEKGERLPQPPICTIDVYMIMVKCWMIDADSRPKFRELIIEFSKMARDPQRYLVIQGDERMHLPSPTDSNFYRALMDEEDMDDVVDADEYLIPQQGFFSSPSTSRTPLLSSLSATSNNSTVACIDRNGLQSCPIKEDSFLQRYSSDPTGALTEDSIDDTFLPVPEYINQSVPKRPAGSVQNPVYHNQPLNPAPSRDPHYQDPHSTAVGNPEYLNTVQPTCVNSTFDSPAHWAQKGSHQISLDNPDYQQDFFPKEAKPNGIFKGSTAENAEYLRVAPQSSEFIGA
pIC50: −log10 of the molar value.
endpoint.name: pIC50

1. NCCc1cn(Cc2ccc(-c3cccc(C(F)(F)F)c3)cc2)c2ccc(OCCc3ccc(O)cc3)cc12: 5.95
2. NC1CCc2c(c3cc(OCCc4ccc(O)cc4)ccc3n2CCCCCc2ccccc2)C1 (configuration not stated): 6.01

---

- system.tested: Insulin-like growth factor 1 receptor (Homo sapiens, UniProt P08069)
- Sequence (P08069 31-736 limits assumed): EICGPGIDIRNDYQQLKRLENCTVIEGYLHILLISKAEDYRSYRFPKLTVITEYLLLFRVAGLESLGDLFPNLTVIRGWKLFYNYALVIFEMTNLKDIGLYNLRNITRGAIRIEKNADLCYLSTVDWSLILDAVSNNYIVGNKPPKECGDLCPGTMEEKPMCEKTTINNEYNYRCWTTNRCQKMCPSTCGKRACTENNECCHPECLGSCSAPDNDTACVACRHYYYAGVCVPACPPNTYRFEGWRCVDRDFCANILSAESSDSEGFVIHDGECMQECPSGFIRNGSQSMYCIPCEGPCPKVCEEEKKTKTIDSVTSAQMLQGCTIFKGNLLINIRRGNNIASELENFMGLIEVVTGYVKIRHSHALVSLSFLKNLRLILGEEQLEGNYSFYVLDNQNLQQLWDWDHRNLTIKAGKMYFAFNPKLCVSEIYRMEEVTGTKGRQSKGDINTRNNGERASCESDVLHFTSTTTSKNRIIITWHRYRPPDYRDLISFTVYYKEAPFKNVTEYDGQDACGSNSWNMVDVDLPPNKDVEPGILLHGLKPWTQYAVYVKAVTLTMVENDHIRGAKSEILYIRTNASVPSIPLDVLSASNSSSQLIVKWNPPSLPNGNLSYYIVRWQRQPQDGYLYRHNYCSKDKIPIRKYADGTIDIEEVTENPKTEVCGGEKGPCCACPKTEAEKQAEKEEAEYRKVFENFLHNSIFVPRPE
- Sequence (P08069 741-1367 limits assumed): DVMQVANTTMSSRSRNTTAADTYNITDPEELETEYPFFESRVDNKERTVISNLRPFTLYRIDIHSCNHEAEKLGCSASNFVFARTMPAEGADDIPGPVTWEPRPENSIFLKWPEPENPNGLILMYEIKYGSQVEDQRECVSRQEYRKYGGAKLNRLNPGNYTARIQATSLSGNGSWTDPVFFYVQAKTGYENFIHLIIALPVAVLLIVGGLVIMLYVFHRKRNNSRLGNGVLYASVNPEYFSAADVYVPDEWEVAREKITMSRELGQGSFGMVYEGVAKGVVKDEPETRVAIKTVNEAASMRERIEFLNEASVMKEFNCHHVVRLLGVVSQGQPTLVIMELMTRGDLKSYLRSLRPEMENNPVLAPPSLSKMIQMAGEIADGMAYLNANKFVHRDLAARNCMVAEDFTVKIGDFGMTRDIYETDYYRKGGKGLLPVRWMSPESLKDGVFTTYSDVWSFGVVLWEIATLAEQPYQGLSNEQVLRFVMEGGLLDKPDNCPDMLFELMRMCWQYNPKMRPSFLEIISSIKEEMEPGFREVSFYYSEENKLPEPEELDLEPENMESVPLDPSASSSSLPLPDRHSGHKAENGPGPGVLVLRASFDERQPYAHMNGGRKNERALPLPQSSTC
- assay.remarks: Noncompetitive inhibition of IGF1R after 30 mins by chemiluminescence ELISA in presence of 250 uM ATP
pIC50: −log10 of the molar value.
Entries and their measured pIC50 follow.
endpoint.name: pIC50

1. NCCc1cn(Cc2ccc(-c3cccc(C(F)(F)F)c3)cc2)c2ccc(OCCc3ccc(O)cc3)cc12: 5.99
2. NC1CCc2c(c3cc(OCCc4ccc(O)cc4)ccc3n2CCCCCc2ccccc2)C1 (configuration not stated): 5.91
